Assay: Binding affinity to soybean agglutinin was evaluated
Parameters: species or system Glycine max
Measured Endpoint: IC50 (µM)
Provide the reading as a plain figure in µM.

INSERT INTO measurements (smiles_code, observed_result) VALUES
  ('CC(=O)N[C@@H]1[C@H](Oc2cccc3ccccc23)O[C@@H](CO)[C@@H](O)[C@@H]1O', 1290);

Alright, here's another molecule for you.
Exam item: May I ask what IC50 has been recorded for CC(=O)N[C@@H]1[C@H](Oc2ccccc2)O[C@@H](CO)[C@@H](O)[C@@H]1O ?
Marked response: 1720

====

Assay: Binding affinity to Agglutinin was evaluated
Design: species or system Arachis hypogaea
Measured Endpoint: IC50 (µM)
Provide the reading as a plain figure in µM.

INSERT INTO measurements (smiles_code, measured_endpoint, observed_result) VALUES
  ('CC(=O)N[C@@H]1[C@H](Oc2ccccc2)O[C@@H](CO)[C@@H](O)[C@@H]1O', 'IC50', 2510);

Exam item: May I ask what IC50 has been recorded for CC(=O)N[C@@H]1[C@H](Oc2cccc3ccccc23)O[C@@H](CO)[C@@H](O)[C@@H]1O ?
Marked response: 1950
